Origin of the recorded values: patent US20110044938A1

tested on: subclones of RKO colon adenocarcinoma cells (RKOp27 or RKOp21) arrested by Ponasterone A; test: Alamar Blue cell viability assay, cell cycle specific mode of action: cells arrested by ectopic p27Kip1 induced by Ponasterone A versus proliferating cells; assay type: cell-based; settings: Homo sapiens, RKO p27 induced (arrested) cells, 10 μM Ponasterone A, 72 hours, value = class bound given in Table A, read-out: −logIC50 RKO p27 induced (arrested) (converted)
Below, each entry is listed with its recorded IC50.
Quantity: IC50

Compound	Experimental result
CCCNC(=O)OC1CCc2c(sc(NC(=O)/C=C/c3cccnc3)c2C#N)C1 (centres unmarked) [Example 107]	≥ 100 µM
COc1cccc(CCC(=O)Nc2sc3c(c2C#N)CCC(COC(=O)NCc2cnoc2C)C3)c1 (centres unmarked) [Example 242]	≥ 100 µM
Cc1nn(C)cc1CNC(=O)OC1CCc2c(sc(NC(=O)CC(C)c3ccccc3)c2C#N)C1 (centres unmarked) [Example 301]	≥ 50.1 µM
COC(=O)OCC1CCc2c(sc(NC(=O)/C=C/c3cccnc3)c2C#N)C1 (centres unmarked) [Example 49]	≥ 100 µM
Cc1nc(CNC(=O)OCC2CCc3c(sc(NC(=O)/C=C/c4cccnc4)c3C#N)C2)cs1 (centres unmarked) [Example 66]	≥ 100 µM
CCOc1ccccc1CCC(=O)Nc1sc2c(c1C#N)CCC(OC(=O)NCc1cc(C)on1)C2 (centres unmarked) [Example 172]	≥ 100 µM
N#Cc1c(NC(=O)/C=C/c2cccnc2)sc2c1CCC(COC(=O)N1CCC(O)C1)C2 (centres unmarked) [Example 75]	≥ 100 µM
CCOc1ccccc1CCC(=O)Nc1sc2c(c1C#N)CCC(OC(=O)NCc1ccccc1)C2 (centres unmarked) [Example 155]	≥ 100 µM
COc1cccc(C(C)CC(=O)Nc2sc3c(c2C#N)CCC(COC(=O)NCc2conc2C)C3)c1 (centres unmarked) [Example 365]	≥ 100 µM
CC(CC(=O)Nc1sc2c(c1C#N)CCC(COC(=O)NC(C)c1cccnc1)C2)c1cccnc1 (centres unmarked) [Example 284]	≥ 50.1 µM
CCOc1ccccc1CCC(=O)Nc1sc2c(c1C#N)CCC(COC(=O)NCc1conc1C)C2 (centres unmarked) [Example 198]	≥ 100 µM
CCOc1ccccc1CCC(=O)Nc1sc2c(c1C#N)CCC(COC(=O)NCc1nccn1C)C2 (centres unmarked) [Example 183]	≥ 50.1 µM
CNC(=O)OCC1CCc2c(sc(NC(=O)CCc3cccnc3)c2C#N)C1 (centres unmarked) [Example 162]	≥ 100 µM
CC(CC(=O)Nc1sc2c(c1C#N)CCC(OC(=O)NCc1ccnn1C)C2)c1ccccc1 (centres unmarked) [Example 293]	≥ 50.1 µM
COc1cccc(CCC(=O)Nc2sc3c(c2C#N)CCC(OC(=O)NCc2cnoc2C)C3)c1 (centres unmarked) [Example 227]	≥ 100 µM
CCOc1ccccc1/C=C/C(=O)Nc1sc2c(c1C#N)CCC(OC(=O)OCCN1CCOCC1)C2 (centres unmarked) [Example 13]	≥ 100 µM
COc1cccc(C(C)CC(=O)Nc2sc3c(c2C#N)CCC(OC(=O)NCc2cnn(C)c2)C3)c1 (centres unmarked) [Example 274]	≥ 100 µM
CCOc1ccccc1CCC(=O)Nc1sc2c(c1C#N)CCC(OC(=O)NCc1ccno1)C2 (centres unmarked) [Example 207]	≥ 100 µM
N#Cc1c(NC(=O)/C=C/c2cccnc2)sc2c1CCC(OC(=O)N1CCCCO1)C2 (centres unmarked) [Example 120]	≥ 100 µM
N#Cc1c(NC(=O)/C=C/c2cccnc2)sc2c1CCC(COC(=O)N1CCCCC1)C2 (centres unmarked) [Example 83]	≥ 100 µM
COc1cccc(C(C)CC(=O)Nc2sc3c(c2C#N)CCC(COC(=O)NCc2nccn2C)C3)c1 (centres unmarked) [Example 330]	≥ 10 µM
CC(CC(=O)Nc1sc2c(c1C#N)CCC(COC(=O)N1CCOCC1)C2)c1ccccc1 (centres unmarked) [Example 378]	≥ 10 µM
N#Cc1c(NC(=O)CCc2cccnc2)sc2c1CCC(COC(=O)N1CCCC1)C2 (centres unmarked) [Example 258]	≥ 100 µM
Cc1ccncc1/C=C/C(=O)Nc1sc2c(c1C#N)CCC(COC(=O)N1CCCC1)C2 (centres unmarked) [Example 130]	≥ 100 µM
Cc1nc(CNC(=O)OCC2CCc3c(sc(NC(=O)CC(C)c4cccnc4)c3C#N)C2)cs1 (centres unmarked) [Example 377]	≥ 10 µM
N#Cc1c(NC(=O)/C=C/c2cccnc2)sc2c1CCC(OC(=O)N1CC(O)C1)C2 (centres unmarked) [Example 77]	≥ 100 µM
N#Cc1c(NC(=O)/C=C/c2cccnc2)sc2c1CCC(COC(=O)N1CCCC1)C2 (centres unmarked) [Example 68]	≥ 100 µM
CNC(=O)OC[C@@H]1CCc2c(sc(NC(=O)/C=C/c3cccnc3)c2C#N)C1 [Example 16b]	≥ 100 µM
CC(CC(=O)Nc1sc2c(c1C#N)CCC(OC(=O)N1CCCC1)C2)c1ccccc1 (centres unmarked) [Example 360]	≥ 100 µM
CCOc1ccccc1/C=C/C(=O)Nc1sc2c(c1C#N)CCC(OC(=O)NCc1cccnc1)C2 (centres unmarked) [Example 14]	≥ 50.1 µM
CC(CC(=O)Nc1sc2c(c1C#N)CCC(COC(=O)NC(C)c1ccnn1C)C2)c1ccccc1 (centres unmarked) [Example 318]	≥ 10 µM
CCOc1ccccc1/C=C/C(=O)Nc1sc2c(c1C#N)CCC(OC(=O)NCCn1ccnc1)C2 (centres unmarked) [Example 31]	≥ 10 µM

====

test system: subclones of RKO colon adenocarcinoma cells (RKOp27 or RKOp21) arrested by Ponasterone A; assay: Alamar Blue cell viability assay, cell cycle specific mode of action: cells arrested by ectopic p27Kip1 induced by Ponasterone A versus proliferating cells; format: cell-based; conditions: Homo sapiens, RKO p27 induced (arrested) cells, 10 μM Ponasterone A, 72 hours, value = class bound given in Table A, read-out: −logIC50 RKO p27 induced (arrested) (converted)

Compound	IC50
N#Cc1c(NC(=O)/C=C/c2cccnc2)sc2c1CCC(COC(=O)N1CC=CC1)C2 (stereo not shown)	≥ 100 µM
COc1cccc(CCC(=O)Nc2sc3c(c2C#N)CCC(OC(=O)NCc2cncn2C)C3)c1 (stereo not shown)	≥ 50.1 µM
N#Cc1c(NC(=O)/C=C/c2cccnc2)sc2c1CCC(COC(=O)NCc1nccs1)C2 (stereo not shown)	≥ 100 µM
CCOc1ccccc1CCC(=O)Nc1sc2c(c1C#N)CCC(OC(=O)OCc1cncs1)C2 (stereo not shown)	≥ 100 µM

====

tested on: subclones of RKO colon adenocarcinoma cells (RKOp27 or RKOp21) arrested by Ponasterone A; assay: Alamar Blue cell viability assay, cell cycle specific mode of action: cells arrested by ectopic p27Kip1 induced by Ponasterone A versus proliferating cells; assay type: cell-based; settings: Homo sapiens, RKO p27 induced (arrested) cells, 10 μM Ponasterone A, 72 hours, value = class bound given in Table A, read-out: −logIC50 RKO p27 induced (arrested) (converted)
Below, each entry is listed with its recorded IC50.
Quantity: IC50

Compound	Experimental result
Cc1cc(CNC(=O)OC2CCc3c(sc(NC(=O)/C=C/c4cccnc4)c3C#N)C2)on1 (centres unmarked)	≥ 100 µM
Cc1cc(CNC(=O)OC[C@H]2CCc3c(sc(NC(=O)/C=C/c4cccnc4)c3C#N)C2)no1 [Example 47a]	≥ 100 µM
N#Cc1c(NC(=O)CCc2cccnc2)sc2c1CCC(OC(=O)NC1CC1)C2 (centres unmarked)	≥ 50.1 µM
Cc1n[nH]cc1CNC(=O)OCC1CCc2c(sc(NC(=O)CC(C)c3ccccc3)c2C#N)C1 (centres unmarked)	≥ 10 µM
CCOC(=O)OC1CCc2c(sc(NC(=O)CCc3cccnc3)c2C#N)C1 (centres unmarked)	≥ 100 µM
COc1cccc(C(C)CC(=O)Nc2sc3c(c2C#N)CCC(OC(=O)NCC2CCOCC2)C3)c1 (centres unmarked)	≥ 100 µM
N#Cc1c(NC(=O)/C=C/c2cccnc2)sc2c1CCC(COC(=O)NC1CC1)C2 (centres unmarked)	≥ 100 µM
CCOc1ccccc1CCC(=O)Nc1sc2c(c1C#N)CCC(OC(=O)NCc1nc(C)cs1)C2 (centres unmarked)	≥ 100 µM

====

Below, each entry is listed with its recorded IC50.
System: subclones of RKO colon adenocarcinoma cells (RKOp27 or RKOp21) arrested by Ponasterone A
Assay: Alamar Blue cell viability assay, cell cycle specific mode of action: cells arrested by ectopic p27Kip1 induced by Ponasterone A versus proliferating cells
Type: cell-based
Settings: Homo sapiens, RKO p27 induced (arrested) cells, 10 μM Ponasterone A, 72 hours, value = class bound given in Table A, read-out: −logIC50 RKO p27 induced (arrested) (converted)
Procedure: To determine the cell cycle specific mode of action, subclones of RKO colon adenocarcinoma cells (RKOp27 or RKOp21 as described by Schmidt et al. in Oncogene 19, 2423-2429; 2000) are seeded into 96 well flat bottom plates at a density of 15000 cells per well in a volume of 50 μl per well in DMEM growth medium with 10% FCS containing 10 μM Ponasterone A. 24 hours after seeding the 50 μl each of the compound dilutions in DMEM medium are added into each well of the 96 Well plate. […]
Quantity: IC50

Molecule	Experimental result
Cc1ccncc1/C=C/C(=O)Nc1sc2c(c1C#N)CCC(COC(=O)N(C)C)C2 (stereo not shown)	≥ 100 µM
COc1cccc(CCC(=O)Nc2sc3c(c2C#N)CCC(OC(=O)NCc2conc2C)C3)c1 (stereo not shown)	≥ 100 µM
CCOC(=O)OC1CCc2c(sc(NC(=O)/C=C/c3ccccc3OCC)c2C#N)C1 (stereo not shown)	≥ 100 µM
CN(C(=O)OCC1CCc2c(sc(NC(=O)/C=C/c3cccnc3)c2C#N)C1)C1CCCC1 (stereo not shown)	≥ 100 µM
COc1cccc(C(C)CC(=O)Nc2sc3c(c2C#N)CCC(OC(=O)NCc2cccnc2)C3)c1 (stereo not shown)	≥ 100 µM
N#Cc1c(NC(=O)/C=C/c2cccnc2)sc2c1CC[C@H](COC(=O)N1CCC[C@H](O)C1)C2 [Example 87c]	≥ 100 µM
N#Cc1c(NC(=O)/C=C/c2cccnc2)sc2c1CCC(COC(=O)N1CCC1)C2 (stereo not shown)	≥ 100 µM
N#Cc1c(NC(=O)/C=C/c2cccnc2)sc2c1CCC(COC(=O)N1CC(F)C1)C2 (stereo not shown)	≥ 100 µM
CC(CC(=O)Nc1sc2c(c1C#N)CCC(COC(=O)NCc1cnn(C)c1)C2)c1cccnc1 (stereo not shown)	≥ 100 µM
CC(CC(=O)Nc1sc2c(c1C#N)CCC(COC(=O)NCc1ccccc1)C2)c1ccccn1 (stereo not shown)	≥ 50.1 µM
N#Cc1c(NC(=O)/C=C/c2cccnc2)sc2c1CCC(COC(=O)N[C@H]1CC[C@H](O)CC1)C2 (stereo partly shown)	≥ 100 µM
COc1cccc(C(C)CC(=O)Nc2sc3c(c2C#N)CCC(COC(=O)NCc2cncn2C)C3)c1 (stereo not shown)	≥ 10 µM
COc1cccc(CCC(=O)Nc2sc3c(c2C#N)CCC(OC(=O)OCc2cccnc2)C3)c1 (stereo not shown)	≥ 100 µM
CCOc1ccccc1CCC(=O)Nc1sc2c(c1C#N)CCC(OC(=O)NCc1cccnc1)C2 (stereo not shown)	≥ 100 µM
COc1cccc(CCC(=O)Nc2sc3c(c2C#N)CCC(OC(=O)NCc2cc(C)nn2C)C3)c1 (stereo not shown)	≥ 100 µM
CCOc1ccccc1CCC(=O)Nc1sc2c(c1C#N)CCC(COC(=O)NCc1cncn1C)C2 (stereo not shown)	≥ 50.1 µM
